Reference source: patent US20260216149A1

Tested on: Mouse liver cancer H22 cell line
Assay: IC50 determination (CCK-8)
Type: cell-based
Settings: H22, RPMI 1640, treated 8 h
Experimental: The cells were washed with PBS (pH 7.4), added with a CCK-8 solution (Beijing Beyotime Biotechnology) to each well according to the instructions, and then incubated for 4 h.
measurement.type: pIC50
Numbers only, as −log10 of the molar value.

Exam item: Output reported pIC50 of the molecule F[P-](F)(F)(F)(F)F.O=[N+]([O-])c1cc2ccc[nH+]c2c2ncccc12.O=[N+]([O-])c1cc2cccnc2c2ncccc12 [Example 7] on Mouse liver cancer H22 cell line.
Marked response: 3.49

* * *

system: Human neuroglioma U521MG cell Line; assay: IC50 determination (CCK-8); format: cell-based; details: DMEM HG, treated 8 h
measurement.type: IC50 (µM)
Answers are plain numbers, in µM.

Exam item: For the compound F[P-](F)(F)(F)(F)F.O=[N+]([O-])c1cc2ccc[nH+]c2c2ncccc12.O=[N+]([O-])c1cc2cccnc2c2ncccc12 , report IC50.
Marked response: 320
